Recorded IC50 values for a group of compounds are listed next.
- ASSAY_TARGET: DRB1*0101 (Homo sapiens, UniProt P01903+P01911, A100R/D57E/F55L/F60I/F76Y/I96L/L162R/M171V/P40L/Q125E/R42F/V115G/Y59C)
- Construct: made in house; host or cells: EBV-transformed homozygous human B cell lines, transfected fibroblasts or single-allele 721.221 transfectants
- PROCEDURE_SUMMARY: biochemical
- Format: binding
- MEASUREMENT_SETUP: IC50 nM to purified HLA DRB1*0101
Express the result in nM but write the number alone.

The cases that follow already have their IC50 on record.
{"SMILES_CODE": "CC[C@H](C)[C@H](NC(=O)[C@H](CCC(N)=O)NC(=O)[C@H](Cc1ccc(O)cc1)NC(=O)[C@H](CCC(=O)O)NC(=O)[C@H](CC(C)C)NC(=O)[C@@H](N)CC(N)=O)C(=O)NCC(=O)N[C@@H](Cc1ccc(O)cc1)C(=O)N[C@H](C(=O)N[C@@H](CS)C(=O)N[C@@H](CO)C(=O)NCC(=O)N[C@H](C(=O)N[C@@H](Cc1ccccc1)C(=O)NCC(=O)O)C(C)C)[C@@H](C)CC", "IC50 (nM)": 1130}
{"SMILES_CODE": "CC[C@H](C)[C@H](NC(=O)[C@H](CC(C)C)NC(=O)[C@H](Cc1c[nH]c2ccccc12)NC(=O)[C@@H](NC(=O)[C@@H](N)C(C)C)C(C)C)C(=O)N[C@@H](CCCCN)C(=O)N[C@@H](CCCCN)C(=O)N[C@@H](CC(N)=O)C(=O)N[C@@H](CO)C(=O)N[C@H](C(=O)N[C@@H](Cc1ccc(O)cc1)C(=O)N1CCC[C@H]1C(=O)N[C@H](C(=O)N[C@H](C(=O)N[C@@H](CCCCN)C(=O)N[C@@H](CCCNC(=N)N)C(=O)O)[C@@H](C)CC)[C@@H](C)O)[C@@H](C)O", "IC50 (nM)": 464}
{"SMILES_CODE": "CC(C)C[C@H](NC(=O)CNC(=O)[C@@H](NC(=O)[C@H](C)NC(=O)[C@H](CC(C)C)NC(=O)[C@@H](NC(=O)[C@H](CC(C)C)NC(=O)[C@H](CCCNC(=N)N)NC(=O)[C@H](CC(N)=O)NC(=O)[C@H](CO)NC(=O)[C@H](CCCCN)NC(=O)[C@@H](NC(=O)[C@H](Cc1ccc(O)cc1)NC(=O)[C@H](CCCCN)NC(=O)[C@@H]1CCCN1C(=O)[C@@H](N)CS)C(C)C)C(C)C)[C@@H](C)O)C(=O)O", "IC50 (nM)": 2760}
{"SMILES_CODE": "CC(C)C[C@H](NC(=O)[C@H](C)NC(=O)CNC(=O)[C@H](CCC(N)=O)NC(=O)[C@@H](NC(=O)[C@H](CC(C)C)NC(=O)[C@H](Cc1ccccc1)NC(=O)[C@H](Cc1ccccc1)NC(=O)[C@@H](NC(=O)[C@@H](N)CCCNC(=N)N)[C@@H](C)O)[C@@H](C)O)C(=O)N[C@@H](CC(C)C)C(=O)N[C@@H](CC(N)=O)C(=O)N[C@@H](CC(=O)O)C(=O)N[C@@H](CCCCN)C(=O)N[C@@H](Cc1c[nH]cn1)C(=O)N[C@@H](CO)C(=O)O", "IC50 (nM)": 16}
{"SMILES_CODE": "CC[C@H](C)[C@H](NC(=O)[C@H](C)NC(=O)CNC(=O)[C@@H](N)CCC(=O)O)C(=O)N[C@H](C(=O)NCC(=O)N[C@@H](CCC(=O)O)C(=O)N[C@H](C(=O)N[C@@H](CO)C(=O)N1CCC[C@H]1C(=O)N[C@@H](CC(C)C)C(=O)N1CCC[C@H]1C(=O)N[C@@H](CO)C(=O)N[C@@H](CC(C)C)C(=O)N1CCC[C@H]1C(=O)O)[C@@H](C)CC)C(C)C", "IC50 (nM)": 85}
{"SMILES_CODE": "CC[C@H](C)[C@H](NC(=O)[C@H](CO)NC(=O)[C@H](CCC(N)=O)NC(=O)[C@H](CCC(=O)O)NC(=O)[C@H](CC(=O)O)NC(=O)[C@H](CCCNC(=N)N)NC(=O)CNC(=O)[C@H](CO)NC(=O)[C@@H](NC(=O)[C@@H](NC(=O)[C@H](CC(C)C)NC(=O)[C@H](CCC(N)=O)NC(=O)[C@@H](NC(=O)[C@@H](N)CC(C)C)[C@@H](C)CC)[C@@H](C)CC)C(C)C)C(=O)N[C@@H](C)C(=O)O", "IC50 (nM)": 3230}
{"SMILES_CODE": "CC[C@H](C)[C@H](NC(=O)[C@H](CC(C)C)NC(=O)[C@@H](N)Cc1ccccc1)C(=O)N[C@@H](CC(C)C)C(=O)NCC(=O)N[C@@H](CCCCN)C(=O)N[C@@H](CCC(=O)O)C(=O)N[C@@H](CC(=O)O)C(=O)N[C@@H](CCCNC(=N)N)C(=O)N[C@@H](CCCNC(=N)N)C(=O)N[C@@H](Cc1ccc(O)cc1)C(=O)NCC(=O)N1CCC[C@H]1C(=O)N[C@@H](C)C(=O)N[C@@H](CC(C)C)C(=O)O", "IC50 (nM)": 8390}
{"SMILES_CODE": "CC[C@H](C)[C@H](NC(=O)[C@H](CCCNC(=N)N)NC(=O)[C@@H](NC(=O)[C@H](CO)NC(=O)[C@H](CC(N)=O)NC(=O)[C@H](CC(=O)O)NC(=O)[C@H](CCCCN)NC(=O)[C@H](CO)NC(=O)[C@H](Cc1ccc(O)cc1)NC(=O)[C@@H](NC(=O)[C@H](C)NC(=O)[C@@H](N)Cc1c[nH]c2ccccc12)C(C)C)[C@@H](C)CC)C(=O)NCC(=O)N[C@@H](CO)C(=O)N[C@@H](CCCCN)C(=O)O", "IC50 (nM)": 5400}
{"SMILES_CODE": "CSCC[C@H](NC(=O)[C@H](CO)NC(=O)[C@H](Cc1ccccc1)NC(=O)[C@H](CC(N)=O)NC(=O)[C@H](C)NC(=O)[C@@H](N)C(C)C)C(=O)N[C@@H](CCC(=O)O)C(=O)N[C@@H](CC(C)C)C(=O)N1CCC[C@H]1C(=O)N[C@@H](CO)C(=O)N[C@@H](Cc1ccccc1)C(=O)NCC(=O)N[C@H](C(=O)N[C@@H](CO)C(=O)NCC(=O)O)C(C)C", "IC50 (nM)": 20}

Ask: Item "CC(C)C[C@H](NC(=O)CNC(=O)[C@@H](NC(=O)[C@H](C)NC(=O)[C@H](CC(C)C)NC(=O)[C@@H](NC(=O)[C@H](CC(C)C)NC(=O)[C@H](CCCNC(=N)N)NC(=O)[C@@H](N)CC(N)=O)C(C)C)[C@@H](C)O)C(=O)N[C@@H](CCCNC(=N)N)C(=O)N[C@@H](CC(N)=O)C(=O)N[C@@H](CO)C(=O)N1CCC[C@H]1C(=O)N[C@@H](CCC(N)=O)C(=O)N[C@@H](CCCNC(=N)N)C(=O)O" has what recorded IC50?
Reply: 69
